From: patent US20090136516A1

Biological target: T1, human CD20 (human, UniProt P11836 1-297)
T1 construct: whole, on cells; also called cell surface CD20
T1 sequence (looked up): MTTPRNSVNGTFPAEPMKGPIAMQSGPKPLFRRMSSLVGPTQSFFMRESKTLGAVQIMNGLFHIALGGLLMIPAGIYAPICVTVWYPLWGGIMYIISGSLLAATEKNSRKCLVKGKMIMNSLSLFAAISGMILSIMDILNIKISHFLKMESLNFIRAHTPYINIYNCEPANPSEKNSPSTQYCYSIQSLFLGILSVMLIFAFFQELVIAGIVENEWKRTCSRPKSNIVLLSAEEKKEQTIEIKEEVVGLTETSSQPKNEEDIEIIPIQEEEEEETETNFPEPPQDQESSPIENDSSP
Assay: indirect immunofluorescence, flow cytometry, DHL-4 cells, saturating mAb
Can you tell me mean linear fluorescence intensity for the items I'm about to list?

Reference set (2 entries):
1H4 (IgG2a) anti-CD20 monoclonal antibody (antibody) chain 1: QVQLQQPGAELVKPGASVKMSCKTSGYTFTSYNVHWVKQTPGQGLEWIGAIYPGNGDTSFNQKFKGKATLTADKSSSTVYMQLSSLTSEDSAVYYCARSNYYGSSYVWFFDVWGAGTTGTGSS chain 2: QIVLSQSPTILSASPGEKVTMTCRASSSVSYMDWYQQKPGSSPKPWIYATSNLASGVPARFSGSGSGTSYSLTISRVEAEDAATYYCQQWISNPPTFGAGTKLELK    98 mean linear fluorescence intensity
B9E9 anti-CD20 monoclonal antibody (antibody, V domains shown) VH: QVQLVQSGAELVKPGASVKMSCKASGYTFTSYNMHWVKQTPGQGLEWIGAIYPGNGDTSYNQKFKGKATLTADKSSSTAYMQLSSLTSEDSAVYYCARAQLRPNYWYFDVWGAGTTVTVSS VL: DIVLSQSPAILSASPGEKVTMTCRASSSVSYMHWYQQKPGSSPKPWIYATSNLASGVPARFSGSGSGTSYSLTISRVEAEDAATYYCQQWISNPPTFGAGTKLELK    162 mean linear fluorescence intensity

Pending binder:
Field request: mean linear fluorescence intensity | item: 1F5 anti-CD20 monoclonal antibody (antibody, V domains shown) VH: QVQLRQPGAELVKPGASVKMSCKASGYTFTSYNMHWVKQTPGQGLEWIGAIYPGNGDTSYNQKFKGKATLTADKSSSTAYMQLSSLTSEDSAVYYCARSHYGSNYVDYFDYWGQGTTLTVSS VL: DIVLSQSPAILSASPGEKVTMTCRASSSLSFMHWYQQKPGSSPKPWIYATSNLASGVPARFSGSGSGTSYSLTISRVEAEDAATYFCHQWSSNPLTFGAGTKLELK
169 mean linear fluorescence intensity
